# study_target: T1, HLA-DRB1*0101 (human)
# T1 chain 1: not shown
# T1 chain 2: not shown
# experimental_details: inhibition of 125I probe peptide binding to purified HLA-DR, gel filtration
# assay_conditions: remark: other sources report otherwise
Rule: measured IC50 below 20 nM gets Fulfilled; anything equal to or greater than 20 nM gets Not fulfilled.

Worked examples follow.
binder	class
LSVFQNLQVIRGRIL [Her2/neu.422]	Not fulfilled
TVQLVTQLMPYGCLL [Her2/neu.793]	Not fulfilled
CKKIFGSLAFLPESF [Her2/neu.367]	Not fulfilled
SRLLGICLTSTVQLV [Her2/neu.783]	Fulfilled
NLELTYLPTNASLSF [Her2/neu.59]	Fulfilled

Consider the additional binder presented here.
Data request: Problem: For the binder VWELMTFGAKPYDGI [Her2/neu.912] , is IC50 under 20 nM?
Data returned: Not fulfilled
